These entries and their values trace back to PubChem BioAssay (NCI).

- System: SNB-75 CNS
- Test Summary: NCI tumour cell line growth inhibition, 48 h
Readout Label: log10(TGI) (log10 of the value in µM)
Kindly note that the scale is log10 and the underlying TGI is in µM.

Consider the reported log10(TGI) for these molecules:
Molecule	log10(TGI)
CN(C)c1ncnc2c1ccn2C1OC(CO)C(O)C1O (stereo not drawn)	1.35
CC(=O)n1c(-c2ccc(Cl)c(Cl)c2)cn(-c2ccc(Cl)cc2)c1=O	1.50
COc1ccc(/C=N\O[Si](C)(C)C(C)(C)C)cc1O[Si](C)(C)C(C)(C)C	1.57
Cc1ccccc1NC(=O)c1cc2ccccc2cc1O	1.65

State recorded log10(TGI) for all listed molecules.
1. Cc1ccc(S(=O)(=O)Nc2cc(Sc3ccccc3)c(O)c3ccccc23)cc1
2. Cc1ccc(-n2cc(-c3ccc(Cl)cc3)c3c2N=CN2NC(c4cccs4)=NC32)cc1 (stereo not drawn)
3. BrC1=CN2C[n+]3cc(Br)c4ccccc4c3N=C2c2ccccc21
4. CN1CCCC(C(=O)OCC(=O)C2(O)CCC3C4CCC5=CC(=O)CCC5(C)C4C(O)CC32C)C1 (stereo not drawn)
5. O=C1COCCN1c1ccc(NCc2cn(C(=O)c3ccc(Cl)cc3)c3ccccc23)cc1
6. C=C1C(=O)O[C@H]2[C@H]1CC/C(CNC(=O)/C=C/c1ccc(Cl)cc1Cl)=C\CC[C@@]1(C)O[C@@H]21

1: 1.41; 2: 1.37; 3: 1.04; 4: 1.24; 5: 1.72; 6: 1.01

---

- Tested on: SK-MEL-5 melanoma
- Test Summary: NCI tumour cell line growth inhibition, 48 h
*1 amine or outer side, *2 acyl side, *3 side chain or, on linkers, in order; H or OH if unused. Where a SMILES comes first, the peptide text is derived from it. [ ]: non-standard residue; d: D form. The star is where a group is joined. X31 = CC(=O)N(C)SCC(N[*:1])C(=O)[*:2]; Fmoc = O=C(OCC1c2ccccc2-c2ccccc21)*; For = O=C*
Readout Label: TGI

// known answers, use as guide
Molecule	Experimental Target	Assay Value
CC(=O)N(C)SCC(NC(=O)C(Cc1ccccc1)NC(=O)OCC1c2ccccc2-c2ccccc21)C(=O)NC(Cc1ccccc1)C(=O)NC(Cc1cn(C=O)c2ccccc12)C(=O)NC(CCCCNC(=O)OCC1c2ccccc2-c2ccccc21)C(=O)NC(C(=O)NC(CSN(C)C(C)=O)C(=O)NC(C(N)=O)C(C)O)C(C)O (stereo not drawn) (Fmoc-F[X31]FW(For)K(Fmoc)T[X31]T-NH2; configuration not given here)	SK-MEL-5 melanoma	> 100 µM
COC1C(O)C(C)OC(O[C@@H]2C[C@H]3CC[C@@H]4[C@H](CC[C@]5(C)[C@@H](C6=CC(=O)OC6)CC[C@]45O)[C@@]3(C)[C@H](O)C2)C1O (stereo partly drawn)	SK-MEL-5 melanoma	0.122 µM
CC#Cc1c(C#CC)c(OC)c2c(c1OC)C(=O)c1ccccc1C2=O	SK-MEL-5 melanoma	> 100 µM

Could you tell me TGI for each of these molecules? They are listed below.
1. NCCC1([N+](=O)[O-])CCNCC1
2. CNc1ncc2cc(Oc3ccc(F)cc3F)c(=O)n(C)c2n1
3. COc1cc2c(Cc3cc(OCc4ccccc4)ccc3N)nccc2c(OC)c1OC
4. O=C(NN1C(=O)CSC12CCC(c1ccccc1)CC2)c1[nH]c2ccc(F)cc2c1-c1ccccc1 (stereo not drawn)
5. Cn1c2ccccc2c2[nH]c3ccccc3c(=O)c21
6. COc1nc(C)nc2c1ncn2Cc1ccccc1
7. NCCSC(C[N+](=O)[O-])c1ccccc1Cl (stereo not drawn)
8. O=C1Nc2ccc(Br)cc2/C1=C/C(=O)c1ccccc1

1. > 100 µM
2. > 25 µM
3. > 10 µM
4. 32.3 µM
5. > 100 µM
6. > 100 µM
7. 10.1 µM
8. 41.7 µM

Return reported TGI values for all items listed beneath this line.
1. CC(=O)n1c(-c2ccc(Cl)c(Cl)c2)cn(-c2ccc(Cl)cc2)c1=O
2. CC1(C)N=C(Oc2ccccc2)n2nccc2N1

> 100 µM
> 100 µM
